- protocol_text: protease stability score; higher = more stable; yeast display proteolysis, trypsin and chymotrypsin;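 also: relative to predicted unfolded state with 0 unfolded-like and 1 meaning tenfold more protease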
Label T when protease stability score is at or above 1; otherwise label F.

>>> class("SEYEHEAREVMHRLIHATETGDEEQILRMIDPHVRIDINGVELIGWRHLEEYLRRIDVVYIRIDARRVDVQGDKIRVDTEMDVEVDYDGRKFRHKEKTIIFMHKVDGRWLITSFHVL")
"T"
>>> class("SEEERLAEHYYRETIELITTGDWRKLLELFDPDARLVIGDKTYHGMDTIIKIWEELRMHIRDVHFHHVSVIDGRIHLDVVVDVTKNIDGVRIRTTHRVHIIMEKIDGKWFVREIRIK")
"T"
>>> class("DHEEHLSHIALRESMEYLETGDPRKYTELMDPNVKLRVDINGKQIEFHGREEASRFMEHVQHEIKGARIETHSEDTQGNKIHMDLKLLINGKESKLIIIALKINGRWLVTSMEVHVK")
"T"
>>> class("SEKEEISRRLLELWLKADATGDEKLLLKLMDPDVRIDVDGVENHGMELVTEFLREERDRIDHKIIEIKEMRVVGDKVHMDIRINIEVNGKENETRVELRLEIIDGKIRSVKIIKR")
"F"
>>> class("DEEEKLLEFLVEHIATILVTGDEDRWLTLADPDVKVIIDGRTFIGWEFLEELIHQIRIHRMRIRHFSFVNGRLVFIFSIDGTIGDKRDEHDTRYEMIKIDGRWRLKRVEIR")
"T"
>>> class("DEEEKIMYHIFEVLIKLFLTGDFDTFTKMLDPNVYWNINGQENHGRDKVREALKLWIERFKNRTFDIKITDMRVQGEKTTLHTRLHVEVDGRHLEHDTVIILIVVDGRIKTIVIHIH")
"T"
>>> class("DEEDQFTEKITRILHEIHRTGDFEKWEKLADPHVKVVIGEFEQHGRETASWVIEWLARYMGIKHIELRDHRVINGVVHLEHEVKVGDKRIDLELRHFVYDGRLKETEIRFR")
"F"
>>> class("SEEEELEERLTRYWLHAFWTGDWEHLKEMADPDARHRLHFENHTESVHGREYLVLIYVRIIRNLGFKHLEIDHVRVVDGVFRIHGILEVNGRKQRVHIIVVIVNGRLRELVLIFG")
"T"
>>> class("DETEKIVRSVVHMFLHLMHTGDWEELMKLADPNTIVHFENHRKHGREDAIRHIIEFILRADHIEVHLDEIRIQGDKVYLNLRLILDINGRRIETRVHIILVKINGRWRIHSMDVE")
"T"
>>> class("DELEEELETAERISHEVLDTGDERIWSKLIDPNARLQIGDKEYHGREEVQRFFLEFGFKVSDIHSVKVQGDKIHVDTRSRVDGKEIELQLNSEKINGKWVLRHIHVWKR")
"T"
>>> class("HEEERLAREYMKRLIHDWVTGDEREHLKLLDPDVRFVQGDKHHHGREEMMRWFQEIRVEDLKHTDEKVYGEKAFVTGHTTWNINGQKIEVKVHYEFVVVNGRVKMIRIDVQ")
"T"
>>> class("EEKEEIDRREMKRFMKAFETGDEHELKELFDPHARVHVGDKVHIGRHNFLRWFKEWIEKYKNVRIELDDVEYQGEKLHLDLTVEINGRRTTQDLVIYKIDGRWLFKNIHVH")
"F"
>>> class("SDEEHELREATEILLHLFLTGDEESLDNLADPNVRVDYNGVKYHGREVLSFWLHEELKHARIHIRIRSLHLVGEFLHIQGEVRIEQGEFRRRHDMHWIIEKVDGRWIIRYVLIK")
"T"
>>> class("SEEEELEEFFIHLMIRMWDTGDFRTFKRLADPNVRLEVNGRHVVGREEVERLLRELLELLGADVIIHRDRDRDKFNGVIVVIIHGQIRQGDKFFDTHLHFVIEKVDGRWLLKSIHIEIR")
"T"
>>> class("DEEDRRAKEIMRLLLEDFHTGNEDSLRELMDPTTRNDLVVNGQEHVIHGRETFAEWESKWIKHLRMNLRLRHVNAFNGQVRLETELNLEVNGRIIILDTEVIVHVYNGRIHSFTHRIK")
"F"
>>> class("DEDTHYARHIMELIIRNFITGDEDDLLRLMDPNTRLHINGVDNHGREEIKRDLERWWHRYPNITVIIRVEHMTAIDGKAHSEMRVQIHYNGVTYSRETRVILIVINGRLHSVEFRID")
"T"
>>> class("NEMEEYVERASRFVYELLQTGDWEKLMNNMDPNVKIRQGNKEYHGREELKRQLEELFKNWGFDRIDVEHHEIKIFENHAHIIHIMRFDGVEHELRIKALKVNGQWLFKTVEIRLH")
"T"
>>> class("DEEEELAHKATEHWLHLVRTGDEEKISSQADPNTKVEIRQGDKRIDSHGMEHFSELLRKLIEDYGVNHIHVNIVRLIDGRVHVNSLVHVGDKEIKIHIWADKVNGRWIHRNMHVHVG")
"F"
>>> class("SEEEESSEDATKLILRLWKTGDEHEWEHLFDPNVKVHIGDKHYVGMEIAVNTLHMLLRELGIDHIRLRDVKIFNGKVIIVFKIEVNGREFETHIISEKVNGRWRIKSVRFE")
"T"
>>> class("DEEDKKVKYFLNEWLHAVKTGDEEHLKRLADPRTYEQVGDKHYHGRETFRRFLHDLLEEMRFHRIHIKFSQMVNGVFYVNGELDGTFDGRRHRTDMRLEFEVVNGRIHELRIEIV")
"T"
>>> class("SEEDEIAEKILRLYLELFKTGDWRRFEELLDPNVRLEFNGRFYHGREEISRIMKEFHNKFKNVRIELTSFEVQGEKNIMRSSENINGVERETEIYLDIWNGRIQSLIIRVR")
"T"
>>> class("DHDEKVSKEVLHEFLHVLRTGNWDHLIKNIDPNARLEVDGVDIHGRENVHKFLDEFHKRMGVDHHELHDEKMTIIDGVLQIDLDTTTEFNGRRFKTTIHLFVLKINGRWTFKTLIIKHE")
"T"

---

- protocol_text: protease stability score; higher = more stable; yeast display proteolysis, trypsin and chymotrypsin;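 also: relative to predicted unfolded state with 0 unfolded-like and 1 meaning tenfold more protease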
Listed next: entries and their corresponding protease stability score.
measurement_name: protease stability score

>>> measured_result("SEEEEMVKRLVEIIARMLETGDEDTLLELLDPEPRIEIGDKRFHGWEEFHKEEHKRLREMRVNSTHIEDVKVYNGRARIHLRIDGSIDGRRIEMRSHFIVQKINGRWSITSVIIR")
1.52
>>> measured_result("SEDERFWKKALDDLLDTIRTGDEHKFREMMDPNVRVHIGDKHFHGREQASEQVVRLGVDHIELRRVDFQGDYLEIHGHLRVNGRETRIHFVLLKIDGRWVVKEVRQE")
2.21
>>> measured_result("DEEEKEMRELFHHIIRLIDTGDFDTLKQLADPNTQLHIGDKHSHGREEVVRMNRHWRYHDSKIRDSHVVNGVIHVDAESNLKFDGVRTVTHVRLILYVVDGRLKSLEIRIE")
0.44

---

# maps each entry to its protease stability score
- protocol_text: protease stability score; higher = more stable; yeast display proteolysis, trypsin and chymotrypsin;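 also: relative to predicted unfolded state with 0 unfolded-like and 1 meaning tenfold more protease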
measurement_name: protease stability score

>>> measured_result("SEEEENSRRVLELFRRIFETGDEDTSRRLADPDARVEVGEFHSIGRESFARMLHHLWRELRWKDEKIEHIEVQGDKVHVNGINFVIYNGKEINLTVHLEMQKVDGRWHIHHFKIE")
1.67
>>> measured_result("DEEEEHAEHMLRLWFHILHTGDWEDLVRLIDPNARLRVGDKTFHGMERLVRRHLEHKRRLGLDNFDFQVDNFEVYGDKIDIDVTENINGREYKVIIHIIVINGRVKNMHIKIN")
0.925
>>> measured_result("SEEEKEAQHLLELENDARRTGDEDFSREMVDPNVKIDINGRDLHGWDVAEELMRQADHVHHEHIRQVEVQGDKLIVDMEINGHINGKSFDIKIHLFIWKYNGKWFVRKIDVK")
1.44
>>> measured_result("SEEHESSQKAIELLWHSMETGDEKLTEDFADPHVRLEFNGVRFHGRDQMNEIIHRQLREMRLKSIHLHHIYSFNGRVHIHGEVIGRVDGRELSHEMEIVAVKVDGKWVLKSLRIH")
1.2
>>> measured_result("DQEERDSKHALRFMEHVISTGDEHLIEELLDPHARLDINGVDVHGREEVKRTITEHRKRYKNLRIHVTDLEVVNGVVRLHTELNIGDKRFEVRWFLDKIDGRWLMTEIRIR")
1.12
>>> measured_result("DEDLQFLKNFKEEWIKNLRTGDEDAVQKLADPNVRIDIDGKELHGREVMLEMLHQETNELRLKDVKDKHMTVQGDKIHWDGILIITINGKEIRRRVHIFVQKVDGRWVIESEIHR")
0.942
>>> measured_result("SEDERDAKFATDLVLHLLRTGDEEKLLQLLDPNVRVEQGNKDWHGREDWHDFMEIMGIDHMTIHHVELRVVNGRVESHVDIRLLVNGRDDDVQLVLFMKKVDGRWRVTSLRFIYR")
1.74
>>> measured_result("DEEERLLEELARLFLHLWRTGDEDTMLHLADPNTRSRINGVEQHGMELTNKFLEELLRHIRIKHLKITHSYAFDGRVFMHTLMHRTVDGKEETVWVEIILVVFNGKLKEYEVRFK")
1.3
>>> measured_result("DEVEKIVYDFLQRHIEHLLTGDEDSFTHNLDPHVRIHIDGQRLIGREDARREVRRLGFDHVEITKIEHQGEKLIVHGTMIINGQEIHLTIYIWKINGRWVVQSIEIK")
0.706
>>> measured_result("DDREKLWHRLVELEKELWLTGDFEDFHSLADPNVQLIVHFDGQEVHYHGRESVTMALKILREQLGADHFEPKSVHYQGNKMQTSMILFVNGREFEFRLTLFVIDGRLKSHHIEWK")
1.48
>>> measured_result("DEDEKVSHHAYKLIEHLFLTGDESTWMRMADPRTRIIIGDFHLIGREEWARVLKEILDRLGFKHIQFTDREVRVYGEKVHVELHLLLIQGDKEIRVELRYISDKIDGQWRYHSVTHHIK")
0.998
>>> measured_result("DEEKEFAEEMTRIWIEFWKTGDEDDLSHMLDPNVRLIIIIGDKHIHMHGRERAIKEIRRLLHEWRIDDEHNEHIRYFNGKVDVRSRIHVTINGREHDHELVVRIFVVDGRVKSVSIEYR")
2.52
>>> measured_result("DEEDKFSREAIELWIRVLETGNEHLLHKLADPHVRVVFNGKESVGMEEFVEVLREIRIHTSRDRHVRLQGDKVDVDSIIDGEVNGVRTKVETQLIATKIDGRWVNQQVNWR")
0.23
>>> measured_result("DEDTRDAEQFLKELLHNQITGDEESEDKLADPNVRIIINGREIHGRETWIKWRRQARITFEDQRVHSIHMIGDKLVLKIEIDGNLSFNGREIRDTVEIEIVVTKVNGRWVLDQVHFK")
1.63
>>> measured_result("SEDHEALHKFLKELIESSRTGDWEDVTRLADPHTRQDFNGKILHGREELKETLKELGINHMEVILNRIDVQGDKAHVDGHLVIYYNGKEITREREIRMVKIDGVWLMHEVRIK")
1.15
>>> measured_result("DEDEHNVREFIERIMRILETGDEHDFKRMADPDVRFEIGDKLIHGMETWSEIHTDELKRIPNLKIQLRIHDVHAYNGRAHVHSHFVIEFDGKRHIIETEMFIIKINGQWHLRSIKYK")
1.46
>>> measured_result("HEEEKLARTFSEVVERSLYTGDEDSLKRLMDPHVRMNVNGVRHIGMELAKEWLHRYIRQLGIDHSTIRHSHDEIQGEKVIVRLHGELVYNGVSREVELIIHVNKVNGVWTISELLVILK")
1.25
>>> measured_result("DEWTHVLHEMLKLLLDAWDTGDEKVLHRMMDPNAKSEINGREFVGMHHISTWLKRERDRLGVEIHIHVRRINFQGDKLEVDSHFNVIIGDKEFHRSTRIELIIVNGRVHSLHIKID")
0.212
>>> measured_result("DDYEKSSKVVWQILVRALETGDEEELRDLFDPHVRIQIGEFHFHGWETVHEHMRRADHIIVRDSKSRDIDHQGNKVILHVDLHIEFTYNGVERSTTFRSNMIMVKVNGKWVIEKIHLQ")
1.55
>>> measured_result("DEEEEELRRLLEEIFRNRVTGDEERWLELADPDVRLEEHINGQEIHLHGREDVAEHIREARIHSTEVKDVKVINGVIHLDEKIDGIINGVRRDTRVIVHIVVINGRIKSIRVIVN")
1.65
>>> measured_result("RDEEEYAHRVLELWRFILETGDEDTLYELADPNVRFKFLQGNKEIHRHGRERMVEEIRTRREELGVKHIHLEHVEVWNGVVHLRVVVHFNGKELRSRIIIVVIDGVIKEIEIREE")
1.04
>>> measured_result("HELLKLVEEMARITVKLFMTGDWKTFKHLADPHVREIINGRTVHGMEKVVEHRKEFKEELWIESITIHDVEVQGEKAHLNTKLIGHVNGREVEVEIYVNIEIINGRWNLVEIDIR")
1.76

src = the NTF2 design screens of Basanta et al. (2020)
